molecular target: intracellular phosphorylation of EGFR in NCI-H1975 cell line that harbors the EGFR L858R T790M mutations (Homo sapiens, UniProt P00533, L858R/T790M); construct: NCI-H1975 cell line that harbors the EGFR L858R T790M mutations (ATCC, CRL-5908); host or cells: NCI-H1975; test: NCI-H1975 pEGFR AlphaLISA assay; assay type: cell-based; conditions: NCI-H1975 cells (EGFR L858R T790M), p-EGFR (Tyr1068), 4-5 hours incubation; read-out: Ext pEGFR H1975 GMean IC50 (nM) Protocol: @Pharmaron AlphaLISA (Num)
Sequence (P00533 25-1210 T790M/L858R): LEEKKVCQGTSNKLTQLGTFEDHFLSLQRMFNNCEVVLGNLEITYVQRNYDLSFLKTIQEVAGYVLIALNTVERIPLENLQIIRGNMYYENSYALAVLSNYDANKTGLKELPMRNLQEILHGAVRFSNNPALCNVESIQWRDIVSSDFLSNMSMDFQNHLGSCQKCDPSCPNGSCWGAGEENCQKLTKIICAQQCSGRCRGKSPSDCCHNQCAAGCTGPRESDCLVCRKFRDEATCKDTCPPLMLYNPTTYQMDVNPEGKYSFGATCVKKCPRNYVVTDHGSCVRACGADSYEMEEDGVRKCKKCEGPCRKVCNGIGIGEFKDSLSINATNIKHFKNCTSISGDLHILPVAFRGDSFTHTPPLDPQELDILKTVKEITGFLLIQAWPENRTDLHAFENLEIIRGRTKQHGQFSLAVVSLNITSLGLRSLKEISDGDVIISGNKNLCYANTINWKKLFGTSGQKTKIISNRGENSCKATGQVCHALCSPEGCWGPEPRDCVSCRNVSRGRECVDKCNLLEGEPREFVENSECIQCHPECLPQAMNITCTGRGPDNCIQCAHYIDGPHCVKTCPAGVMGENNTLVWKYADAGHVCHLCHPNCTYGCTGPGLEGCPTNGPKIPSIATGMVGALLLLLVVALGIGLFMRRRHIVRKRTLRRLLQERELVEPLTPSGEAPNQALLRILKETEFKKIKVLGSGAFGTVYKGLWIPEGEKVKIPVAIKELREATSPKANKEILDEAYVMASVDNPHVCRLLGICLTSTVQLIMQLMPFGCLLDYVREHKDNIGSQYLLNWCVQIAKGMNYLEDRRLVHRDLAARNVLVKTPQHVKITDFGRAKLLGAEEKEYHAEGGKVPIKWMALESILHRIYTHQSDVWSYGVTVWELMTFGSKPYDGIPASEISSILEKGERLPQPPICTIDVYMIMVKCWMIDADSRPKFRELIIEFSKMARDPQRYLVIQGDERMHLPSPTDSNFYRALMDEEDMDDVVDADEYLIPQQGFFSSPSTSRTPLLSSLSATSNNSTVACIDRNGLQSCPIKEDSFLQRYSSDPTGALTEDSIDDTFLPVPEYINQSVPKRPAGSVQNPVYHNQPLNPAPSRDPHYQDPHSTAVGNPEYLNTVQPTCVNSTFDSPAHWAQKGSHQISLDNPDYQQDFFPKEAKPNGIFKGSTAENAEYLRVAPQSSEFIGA
Value Type: IC50

                                    compound  experimental_value
 0  CC(C)c1cnc(N2C[C@@H](C(=O)N(C)C)[C@@H]2C)c2cnc(Nc3ccnc(N4CC[C@@H](O)[C@@](C)(F)C4)n3)cc12 (single isomer, unassigned)             < 10 nM
 1  CC(C)c1ncc(N2CC[C@H]2C)c2cnc(Nc3ccnc(N4CC[C@@H](O)[C@@](C)(F)C4)n3)cc12         20 to 30 nM
 2  CO[C@H]1CCN(c2nccc(Nc3cc4c(C(C)C)ccc(N5CC[C@H]5CN)c4cn3)n2)C[C@H]1F             > 50 nM
 3  C[C@H](CO)c1ccc(N2CC[C@H]2C)c2cnc(Nc3ccnc(N4CC[C@@H](O)[C@@](C)(F)C4)n3)cc12 (single isomer, unassigned)         30 to 50 nM
 4  CC(C)c1cnc(N2C[C@H](O)[C@H]2C)c2cnc(Nc3ccnc(N4CC[C@](C)(O)C(F)(F)C4)n3)cc12 (single isomer, unassigned)         30 to 50 nM
 5  CC(C)c1cnc(N2CC[C@H]2C)c2cnc(Nc3ccnc(N4CCC(O)(CO)CC4)n3)cc12             > 50 nM
 6  CC(C)c1cnc(N2CCC2)c2cnc(Nc3ccnc(N4CC[C@@H](O)[C@@H](F)C4)n3)cc12         30 to 50 nM
 7  CO[C@H]1CCN(c2nccc(Nc3cc4c(C(C)C)ccc(N5C[C@H](c6nncn6C)[C@H]5C)c4cn3)n2)C[C@@H]1O (single isomer, unassigned)         30 to 50 nM
 8  CC(C)c1cnc(-c2cn(C)nn2)c2cnc(Nc3ccnc(N4CC[C@@H](O)[C@@](C)(F)C4)n3)cc12         10 to 20 nM
 9  CO[C@H]1CN(c2ncc(C(C)C)c3cc(Nc4ccnc(N5CC[C@@H](O)[C@@](C)(F)C5)n4)ncc23)[C@@H]1C             < 10 nM
10  CC(C)c1cnc(N2CC(n3ccnc3)C2)c2cnc(Nc3ccnc(N4CC[C@@H](O)[C@@](C)(F)C4)n3)cc12             > 50 nM
11  CC(C)c1cnc(N2CCC3(C2)CC3(F)F)c2cnc(Nc3ccnc(N4CC[C@@H](O)[C@@](C)(F)C4)n3)cc12 (stereo partly shown)         20 to 30 nM
12  CC(C)c1cnc(N2CC(C)(C(=O)N(C)C)C2)c2cnc(Nc3ccnc(N4CC[C@@H](O)[C@@](C)(F)C4)n3)cc12         10 to 20 nM
